Cited source: ChEMBL document CHEMBL1201862

Answer each item with its documented IC50.
Assay system: UniProt:P61088
Sequence (P61088 whole entry): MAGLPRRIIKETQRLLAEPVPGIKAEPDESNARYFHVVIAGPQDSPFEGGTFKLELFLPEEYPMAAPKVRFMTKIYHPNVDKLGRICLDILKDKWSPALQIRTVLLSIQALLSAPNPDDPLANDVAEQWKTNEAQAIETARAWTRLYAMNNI
Assay type: functional
Calls of active or inactive are those of the source.

Consider the molecule `CCn1c(=O)cc(SCC(=O)NCCCN2CCN(c3ccccc3F)CC2)c2ccccc21` and give its measured IC50.
> 20 µM (inactive)

Consider the molecule `CC(C)C[C@@H]1CN=C(N)N1C[C@@H]1CCCN1C[C@@H](C(C)C)N1C[C@@H](Cc2ccccc2)N(CCCC2CCCC2)C1=N` and give its measured IC50.
> 20 µM (inactive)

Consider the molecule `O=C(C1=C[C@@H](c2coc3ccccc3c2=O)C[C@@H](OCc2ccc(CO)cc2)O1)N1CCN(Cc2ccc3c(c2)OCO3)CC1` and give its measured IC50.
> 20 µM (inactive)
